Target: human GLP-1 receptor (human, UniProt P43220 24-463)
Sequence (P43220 24-463): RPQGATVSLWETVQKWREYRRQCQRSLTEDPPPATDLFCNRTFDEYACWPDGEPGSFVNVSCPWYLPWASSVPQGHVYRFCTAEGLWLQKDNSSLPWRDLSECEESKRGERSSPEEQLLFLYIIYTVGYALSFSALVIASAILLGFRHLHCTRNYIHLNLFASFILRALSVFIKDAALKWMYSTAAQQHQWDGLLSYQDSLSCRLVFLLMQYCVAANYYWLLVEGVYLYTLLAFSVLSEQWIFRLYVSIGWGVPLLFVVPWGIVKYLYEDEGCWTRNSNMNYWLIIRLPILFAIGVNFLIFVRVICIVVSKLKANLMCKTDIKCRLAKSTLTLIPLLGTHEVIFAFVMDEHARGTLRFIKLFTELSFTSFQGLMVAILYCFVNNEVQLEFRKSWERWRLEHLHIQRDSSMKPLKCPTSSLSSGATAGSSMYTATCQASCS
Assay: cell-based or functional assay
quantityKind: Human GLP1R EC50 (nM)
Give just the numeric value; nM need not be written.

Q. Look up and state reported Human GLP1R EC50 for GLP-1 fusion peptide GF27 (SEQ ID NO:139) (Fc fusion) HGEGTFTSDVSSYLEEQAAKEFIAWLVKGGGAPAPAPAPAPAPAPAPAPAPAPAPAGPPCPPCPAPEAAGGPSVFLFPPKPKDTLMISRTPEVTCVVVDVSQEDPEVQFNWYVDGVEVHNAKTKPREEQFNSTYRVVSVLTVLHQDWLNGKEYKCKVSNKGLPSSIEKTISKAKGQPREPQVYTLPPSQEEMTKNQVSLTCLVKGFYPSDIAVEWESNGQPENNYKTTPPVLDSDGSFFLYSRLTVDKSRWQEGNVFSCSVMHEALHNHYTQKSLSLSLGAPAPAPAPAPAPCPEEP
A. 0.054
